- target under test: Protein kinase A (Bos taurus, UniProt P00517)
- Construct: a crude enzyme (partially purified from the calf heart by the method of Kuo et al.); from tissue; host or cells: calf heart
- procedure text: biochemical
- test settings: IC50 Protein kinase A, crude enzyme partially purified from the calf heart; histone type IIS, c-AMP
attribute measured: IC50 (µM)
Dear colleague, please return just the value in µM, with no unit written.

compound: CNC1CC2OC(C)(C1OC)n1c3ccccc3c3c4c(c5c6ccccc6n2c5c31)C(=O)NC4=O (centres unmarked) [Compound 15]
IC50 [µM]: 0.0271

Alright, here's another compound for you.
Prompt: Look up IC50 of CN[C@@H]1C[C@H]2O[C@@](C)([C@@H]1OC)n1c3ccccc3c3c4c(c5c6ccccc6n2c5c31)C(=O)N[C@@H]4O [UCN-01, reference compound] and report it.
Completion: 0.0414

----------
- System: HeLa S3 cells
- procedure text: HeLa S3 cell growth inhibition assay
- Assay type: cell-based
- test settings: Homo sapiens, HeLa S3, 72 h, read-out: IC50 HeLa S3
- Experimental: (1) HeLa S3 cell growth inhibition assay: A suspension of HeLa S3 cells (3 x 10^4 cells/ml) in MEM containing 10% fetal serum and 2 mM glutamine is distributed in 0.1 ml portions into the wells of a 96-well microtiter plate and incubated overnight in a C02 incubator at 37°C. Then, 0.05 ml portions of an appropriately diluted solution of the test compound are added. […] Then, using a microplate reader, the absorbances at 550 nm are measured.
IC50: recorded values
Write down the value, and be sure its unit follows.

molecule: CCCCOC1NC(=O)c2c1c1c3ccccc3n3c1c1c2c2ccccc2n1C1CC(NC)C(OC)C3(C)O1 (stereo not shown) [Compound 19]
IC50: 0.32 µg/mL

molecule: CNC1CC2OC(C)(C1OC)n1c3ccccc3c3c4c(c5c6ccccc6n2c5c31)C(=O)N(C)C4=O (stereo not shown) [Compound 14]
IC50: 0.78 µg/mL

molecule: CNC1CC2OC(C)(C1OC)n1c3ccccc3c3c4c(c5c6ccccc6n2c5c31)C(=O)N(N)C4=O (stereo not shown) [Compound 5]
IC50: 0.75 µg/mL

Alright, here's another molecule for you.
Prompt: State IC50 (HeLa S3 cells) of CN[C@@H]1C[C@H]2O[C@@](C)([C@@H]1OC)n1c3ccccc3c3c4c(c5c6ccccc6n2c5c31)C(=O)N[C@@H]4O [UCN-01, reference compound] .
Completion: 0.17 µg/mL

----------
- target under test: Protein kinase A (Bos taurus)
- Construct: a crude enzyme (partially purified from the calf heart by the method of Kuo et al.); from tissue; host or cells: calf heart
- procedure text: biochemical
- test settings: crude enzyme partially purified from the calf heart; histone type IIS, c-AMP; read-out: IC50 Protein kinase A (converted)
log10 IC50: recorded values
Would you kindly interpret these values as log10 of IC50 expressed in nM?

molecule: CNC1CC2OC(C)(C1OC)n1c3ccccc3c3c4c(c5c6ccccc6n2c5c31)C(=O)NC4OC (single isomer, unassigned) [Compound 16]
val: 2.58
--
molecule: CNC1CC2OC(C)(C1OC)n1c3ccccc3c3c4c(c5c6ccccc6n2c5c31)C(=O)NC4OC (single isomer, unassigned) [Compound 17]
val: 2.38
--
molecule: CNC1CC2OC(C)(C1OC)n1c3ccccc3c3c4c(c5c6ccccc6n2c5c31)C(=O)NC4OC (stereo not drawn) [Compound 11]
val: 2.51
--
molecule: COC1C(N(C)C=O)CC2OC1(C)n1c3ccccc3c3c4c(c5c6ccccc6n2c5c31)C(=O)NC4 (stereo not drawn)
val: 4.31
--
molecule: COC1C(N(C)C(C)=O)CC2OC1(C)n1c3ccccc3c3c4c(c5c6ccccc6n2c5c31)C(=O)NC4=O (stereo not drawn)
val: 1.84

Prompt: Look up log10 IC50 of COC1C(N(C)C(C)=O)CC2OC1(C)n1c3ccccc3c3c4c(c5c6ccccc6n2c5c31)C(=O)NC4 (stereo not drawn) and report it.
Completion: 1.77

These measurements were taken from patent EP0383919A1.
